FYI, the data here is from PubChem BioAssay AID1963441.

Measured viability, T/C by item
tested on: NCI-H1876 complex spheroid growth, % test/control; test: Anticancer human tumor NCI-H1876 cell line growth inhibition [Asc]; settings: second compound 0.0316 µM; first compound 0.0316 µM; stronger effect = lower value;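 also: compound exposure lasted 7 days starting three days after seeding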;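 as to viability, T/C: 100% = DMSO vehicle control wells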

O=C(c1ccc(F)c(F)c1Nc1ccc(I)cc1F)N1CC(O)([C@@H]2CCCCN2)C1 + CNC(C)C(=O)NC1CN(S(=O)(=O)c2cccc(S(=O)(=O)N3CCC4CCC(C(=O)NC(c5ccccc5)c5ccccc5)N4C(=O)C(NC(=O)C(C)NC)C3)c2)CCC2CCC(C(=O)NC(c3ccccc3)c3ccccc3)N2C1=O
102%
Cn1ncnc1[C@H]1c2n[nH]c(=O)c3cc(F)cc(c23)N[C@@H]1c1ccc(F)cc1 + Cc1c(S(C)(=O)=O)c(-c2cc(F)cc(N3CCN(c4ccc(NS(=O)(=O)c5ccc(NC(CCN6CCC(C(=O)OCCCP(=O)(O)O)CC6)CSc6ccccc6)c(S(=O)(=O)C(F)(F)F)c5)cc4)CC3)c2)c(-c2ccc(Cl)cc2)n1C(C)C
106%

Now let's try a different one.
Qu. Can you look up the measured viability, T/C of COc1c(OCCCN2CCOCC2)ccc2c3n(c(=NC(=O)c4cnc(N)nc4)nc12)CCN3 + Cc1c(S(C)(=O)=O)c(-c2cc(F)cc(N3CCN(c4ccc(NS(=O)(=O)c5ccc(NC(CCN6CCC(C(=O)OCCCP(=O)(O)O)CC6)CSc6ccccc6)c(S(=O)(=O)C(F)(F)F)c5)cc4)CC3)c2)c(-c2ccc(Cl)cc2)n1C(C)C for me?
Ans. 91.3%

* * *

System: NCI-H1876 complex spheroid growth, % test/control
Assay: Anticancer human tumor NCI-H1876 cell line growth inhibition [Asc];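 also: compound exposure lasted 7 days starting three days after seeding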
Details: curve of first compound; second compound 0.1 µM
Excerpt: Multicellular complex tumor spheroid response to apoptosis pathway targeting inhibitors Alrizomadlin, Pelcitoclax, and Dasminapant in combination with a variety of drugs and investigational agents in selected tumor cell lines […] Compounds. […] If the clinical Cmax for an agent had not been determined, the highest concentration tested was 10 microM. […]
Measured IC50 by item

C=CC(=O)N1CCN(c2nc(=O)n(-c3c(C)ccnc3C(C)C)c3nc(-c4c(O)cccc4F)c(F)cc23)C(C)C1 (configuration not stated) + CNC(C)C(=O)NC1CN(S(=O)(=O)c2cccc(S(=O)(=O)N3CCC4CCC(C(=O)NC(c5ccccc5)c5ccccc5)N4C(=O)C(NC(=O)C(C)NC)C3)c2)CCC2CCC(C(=O)NC(c3ccccc3)c3ccccc3)N2C1=O
> 10 µM

Now let's try a different one.
Qu. Can you look up the measured IC50 of C#Cc1c(F)ccc2cc(O)cc(-c3ncc4c(N5CC6CCC(C5)N6)nc(OCC56CCCN5CC(F)C6)nc4c3F)c12 (configuration not stated) + Cc1c(S(C)(=O)=O)c(-c2cc(F)cc(N3CCN(c4ccc(NS(=O)(=O)c5ccc(NC(CCN6CCC(C(=O)OCCCP(=O)(O)O)CC6)CSc6ccccc6)c(S(=O)(=O)C(F)(F)F)c5)cc4)CC3)c2)c(-c2ccc(Cl)cc2)n1C(C)C for me?
Ans. > 10 µM

* * *

Measured viability, T/C by item
test system: NCI-H1876 complex spheroid growth, % test/control; assay: Anticancer human tumor NCI-H1876 cell line growth inhibition [Asc]; settings: second compound 0.03 µM; first compound 0.01 µM; stronger effect = lower value;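 also: compound exposure lasted 7 days starting three days after seeding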;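 as to viability, T/C: 100% = DMSO vehicle control wells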

Examples with answers:
CCN1CCN(Cc2ccc(Nc3ncc(F)c(-c4cc(F)c5nc(C)n(C(C)C)c5c4)n3)nc2)CC1 + CCN1C(C(=O)NC23CCC(C(=O)O)(CC2)CC3)C(c2cccc(Cl)c2F)C2(C(=O)Nc3cc(Cl)ccc32)C12CCCCC2
102%
CNC(C)C(=O)NC1CN(S(=O)(=O)c2cccc(S(=O)(=O)N3CCC4CCC(C(=O)NC(c5ccccc5)c5ccccc5)N4C(=O)C(NC(=O)C(C)NC)C3)c2)CCC2CCC(C(=O)NC(c3ccccc3)c3ccccc3)N2C1=O (stereo unspecified) + CCN1C(C(=O)NC23CCC(C(=O)O)(CC2)CC3)C(c2cccc(Cl)c2F)C2(C(=O)Nc3cc(Cl)ccc32)C12CCCCC2
96.7%
O=C(c1ccc(F)c(F)c1Nc1ccc(I)cc1F)N1CC(O)([C@@H]2CCCCN2)C1 + CCN1C(C(=O)NC23CCC(C(=O)O)(CC2)CC3)C(c2cccc(Cl)c2F)C2(C(=O)Nc3cc(Cl)ccc32)C12CCCCC2
98.5%
COc1c(OCCCN2CCOCC2)ccc2c3n(c(=NC(=O)c4cnc(N)nc4)nc12)CCN3 + CCN1C(C(=O)NC23CCC(C(=O)O)(CC2)CC3)C(c2cccc(Cl)c2F)C2(C(=O)Nc3cc(Cl)ccc32)C12CCCCC2
96%
NC1CCC(NC2CC2c2ccccc2)CC1 (stereo unspecified) + CCN1C(C(=O)NC23CCC(C(=O)O)(CC2)CC3)C(c2cccc(Cl)c2F)C2(C(=O)Nc3cc(Cl)ccc32)C12CCCCC2
117%

Now let's try a different one.
Qu. Can you look up the measured viability, T/C of Cn1ncnc1[C@H]1c2n[nH]c(=O)c3cc(F)cc(c23)N[C@@H]1c1ccc(F)cc1 + CCN1C(C(=O)NC23CCC(C(=O)O)(CC2)CC3)C(c2cccc(Cl)c2F)C2(C(=O)Nc3cc(Cl)ccc32)C12CCCCC2 for me?
Ans. 92.6%
